Molecular target: Sm.TRPMMCLZ (Schistosoma mansoni, UniProt A0A5K4FCC0)
Sequence (A0A5K4FCC0 1-1380): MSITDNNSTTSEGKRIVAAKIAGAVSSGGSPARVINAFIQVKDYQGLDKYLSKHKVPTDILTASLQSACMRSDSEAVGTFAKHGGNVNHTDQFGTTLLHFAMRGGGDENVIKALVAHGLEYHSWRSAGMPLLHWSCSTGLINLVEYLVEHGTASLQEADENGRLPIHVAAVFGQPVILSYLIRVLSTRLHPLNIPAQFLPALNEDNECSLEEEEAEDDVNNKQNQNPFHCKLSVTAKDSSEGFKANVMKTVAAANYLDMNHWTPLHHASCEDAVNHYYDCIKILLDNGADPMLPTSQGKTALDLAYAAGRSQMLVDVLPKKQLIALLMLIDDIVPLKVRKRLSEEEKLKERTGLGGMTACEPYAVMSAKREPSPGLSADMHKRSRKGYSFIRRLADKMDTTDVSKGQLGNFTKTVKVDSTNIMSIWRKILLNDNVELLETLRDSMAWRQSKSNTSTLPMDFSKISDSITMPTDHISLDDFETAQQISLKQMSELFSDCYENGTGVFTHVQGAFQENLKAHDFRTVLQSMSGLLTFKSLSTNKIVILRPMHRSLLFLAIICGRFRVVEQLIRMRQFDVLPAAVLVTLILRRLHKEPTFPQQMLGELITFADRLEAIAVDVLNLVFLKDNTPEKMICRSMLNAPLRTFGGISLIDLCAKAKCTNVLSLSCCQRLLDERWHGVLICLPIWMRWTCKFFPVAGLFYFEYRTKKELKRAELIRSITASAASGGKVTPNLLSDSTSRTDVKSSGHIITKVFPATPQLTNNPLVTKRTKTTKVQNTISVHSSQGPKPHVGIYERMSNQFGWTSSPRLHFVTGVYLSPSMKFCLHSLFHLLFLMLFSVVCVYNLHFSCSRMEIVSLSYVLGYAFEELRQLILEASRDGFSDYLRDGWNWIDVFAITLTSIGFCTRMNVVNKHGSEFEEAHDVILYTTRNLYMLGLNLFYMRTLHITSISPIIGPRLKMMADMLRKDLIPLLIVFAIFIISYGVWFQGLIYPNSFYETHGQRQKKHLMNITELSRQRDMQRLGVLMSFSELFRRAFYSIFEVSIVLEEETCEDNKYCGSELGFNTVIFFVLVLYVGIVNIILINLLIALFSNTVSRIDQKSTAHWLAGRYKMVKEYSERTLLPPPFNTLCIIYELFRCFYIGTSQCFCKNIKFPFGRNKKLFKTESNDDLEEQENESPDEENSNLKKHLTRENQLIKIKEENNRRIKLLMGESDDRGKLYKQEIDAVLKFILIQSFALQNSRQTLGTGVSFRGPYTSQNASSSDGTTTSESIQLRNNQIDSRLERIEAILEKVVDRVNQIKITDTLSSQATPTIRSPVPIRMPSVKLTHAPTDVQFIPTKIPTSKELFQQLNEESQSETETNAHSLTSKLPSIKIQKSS
Assay: Ca2+ reporter assay
Conditions: Activation of Sm.TRPMMCLZ, EC50, HEK293 cells, cytoplasmic Ca2+ (Fluo-4)
Assay metric: EC50 (nM)
Give bare numbers, in nM.

Kindly note the recorded EC50 for O=C1CN=C(c2ccccc2Cl)c2cc([N+](=O)[O-])ccc2N1 , which is 2100

----------
Target: Sj.TRPMMCLZ (Schistosoma japonicum, UniProt A0A4Z2D8Z3)
Sequence (A0A4Z2D8Z3 1-1377): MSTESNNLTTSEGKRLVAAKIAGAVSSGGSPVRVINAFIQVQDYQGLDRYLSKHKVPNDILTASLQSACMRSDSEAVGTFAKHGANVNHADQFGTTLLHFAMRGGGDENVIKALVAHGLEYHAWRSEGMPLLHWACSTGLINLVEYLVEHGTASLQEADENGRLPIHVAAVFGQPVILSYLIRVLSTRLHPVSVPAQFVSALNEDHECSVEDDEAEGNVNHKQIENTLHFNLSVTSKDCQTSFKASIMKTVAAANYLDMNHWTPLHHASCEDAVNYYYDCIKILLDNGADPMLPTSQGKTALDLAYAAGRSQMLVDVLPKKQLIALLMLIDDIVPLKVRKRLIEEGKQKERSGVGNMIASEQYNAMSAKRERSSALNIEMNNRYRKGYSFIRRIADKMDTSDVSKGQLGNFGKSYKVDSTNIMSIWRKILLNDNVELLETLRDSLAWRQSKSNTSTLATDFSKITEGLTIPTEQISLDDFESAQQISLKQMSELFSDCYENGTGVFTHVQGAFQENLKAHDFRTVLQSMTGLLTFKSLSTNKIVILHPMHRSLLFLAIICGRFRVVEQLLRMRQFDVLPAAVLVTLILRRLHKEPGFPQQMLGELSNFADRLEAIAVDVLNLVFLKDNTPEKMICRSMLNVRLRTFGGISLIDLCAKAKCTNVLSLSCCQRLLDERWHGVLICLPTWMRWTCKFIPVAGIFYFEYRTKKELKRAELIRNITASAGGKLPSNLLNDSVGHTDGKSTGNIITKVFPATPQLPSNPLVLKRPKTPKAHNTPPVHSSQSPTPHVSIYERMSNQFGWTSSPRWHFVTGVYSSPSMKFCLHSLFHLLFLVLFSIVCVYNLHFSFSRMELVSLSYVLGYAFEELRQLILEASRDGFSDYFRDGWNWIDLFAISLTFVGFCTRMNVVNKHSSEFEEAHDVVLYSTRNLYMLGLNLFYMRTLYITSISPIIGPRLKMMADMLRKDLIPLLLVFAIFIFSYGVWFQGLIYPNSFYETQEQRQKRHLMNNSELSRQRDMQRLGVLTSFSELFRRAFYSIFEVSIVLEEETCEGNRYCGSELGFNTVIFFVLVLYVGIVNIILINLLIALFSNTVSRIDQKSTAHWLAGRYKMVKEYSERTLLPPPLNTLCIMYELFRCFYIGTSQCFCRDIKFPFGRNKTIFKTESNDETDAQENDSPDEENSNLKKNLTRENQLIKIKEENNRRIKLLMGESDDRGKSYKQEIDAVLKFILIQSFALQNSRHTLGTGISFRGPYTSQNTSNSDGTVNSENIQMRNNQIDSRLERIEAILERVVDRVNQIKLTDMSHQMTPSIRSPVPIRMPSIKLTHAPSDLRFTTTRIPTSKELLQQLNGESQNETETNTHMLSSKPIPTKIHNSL
Assay: Ca2+ reporter assay, Sj.TRPMMCLZ
pEC50: −log10 of the molar value.
Assay metric: pEC50

// C[C@@H]1N=C(c2ccccc2Cl)c2cc([N+](=O)[O-])ccc2NC1=O [(S)-MCLZ, (S)-meclonazepam] : pEC50 value = < 4.30
